- protocol: budding yeast growth modifiers under rapamycin – strain BY4716, OD600, 96 h, primary screen (AID 1091); also: test concentration not given here
- setup conditions: S. cerevisiae BY4716 + rapamycin, higher = more signal, called active from +8 up or from −8 down
Class field: derived from z-score; ranges class A: < -0.08; class B: ≥ -0.08 and < 0.4; class C: ≥ 0.4

CC1=C2[C@@H](CCc3ccccc3)OB(O)C[C@@H]2[C@@H]2C(=O)N(Cc3ccccc3)C(=O)[C@@H]2C1 = class A
[N-]=[N+]=Nc1ccccc1[C@@H]1OC(c2ccc(OCCCO)cc2)=N[C@]1(Cc1ccccc1)C(=O)O = class C
C=C[C@H](C)[C@H](OC(=O)Nc1ccc(SC)cc1)c1ccc(OCCO)cc1 = class B
COC(=O)[C@@]1(Cc2ccc(F)cc2)[C@H]2c3cc(C(=O)N4CCCC4)n(Cc4ccc(C)c(F)c4F)c3C[C@H]2CN1C(=O)c1ccccc1 = class B
Cc1ccc(C(C)CC(O)C2C=CC3C(=O)N(c4ccccc4)C(=O)C3N2Nc2ccccc2)o1 (stereo not given) = class B

(Q) Please classify: CCOC(=O)C[C@H]1[C@H](OC(=O)c2ccc(C(=O)c3ccccc3)cc2)[C@@H](NC(=O)c2ccc3ccccc3n2)c2cc(OCCCO)ccc2N1C(=O)Cc1ccc(OC)cc1
(A) class C

(Q) Assign a bin to CCOC(=O)C[C@H]1[C@H](OC(=O)c2ccccc2-c2ccccc2)[C@@H](NC(=O)c2ccc3ccccc3c2)c2cc(OCCCO)ccc2N1C(=O)c1ccccc1
(A) class C

(Q) Exam item: assign CCOC(=O)C[C@H]1[C@H](OC(=O)c2ccccc2-c2ccccc2)[C@@H](NC(=O)c2ccc3ccccc3n2)c2cc(OCCCO)ccc2N1C(=O)Cc1ccc(OC)cc1 to the correct category.
(A) class A

(Q) Field: class (z-score) — entry: C=C(COC)/C(=C/C[C@H](OC(=O)c1ccncc1)c1ccccc1OCCO)c1cc(C(=O)OC)ccc1OC
(A) class A

(Q) Note: place this molecule into its band. Item: Cc1ccc(S[C@]2(C(=O)NCC(F)(F)F)CC(=O)N(Cc3cc(C(F)(F)F)cc(C(F)(F)F)c3)[C@@H]2c2ccc(CO)cc2)cc1
(A) class A

---

List of composite z-score values.
- measurement target: Calmodulin-1 (Homo sapiens) (UniProt P0DP23)
- protocol: small molecules binding Ca-loaded calmodulin-1 – biochemical, small-molecule microarray, Cy5-labelled CALM1, plus calcium, artefact control for SMM control-protein annotation, profiling panel (AID 1112);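 also: score merges spot fluorescence with signal to noise from triplicate slides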
- setup conditions: Cy5-CALM1 binding fluorescence, higher = more signal
Write no unit; give the number alone.

C[N+](C)(C)CCCC[C@@H]1NC(=O)[C@@H]2C[C@H](C(=O)NCCCCCCN)[C@H](c3cccc(OCCO)c3)N2C1=O = 1.48
Cc1ccc(C(C)CC(O)C2C=CC3C(=O)N(c4ccccc4)C(=O)C3N2Nc2ccccc2)o1 (stereo not drawn) = 0.125
C#Cc1cc2ccccc2oc1=O = -0.451
CO[C@H]1O[C@H](CO)[C@@H](OC(=O)Nc2ccc(Br)cc2)[C@@H]2OC(=O)[C@@H](Cc3ccccc3)C/C=C/C[C@H](Cc3ccccc3)C(=O)O[C@@H]12 = 0.149

(Q) Reported composite z-score for Calmodulin-1 (Homo sapiens) (UniProt P0DP23), given O[C@@H](Cc1ccccc1)[C@@H](/C=C/C1CC1)N(CC#Cc1ccccc1)Cc1ccccc1Br ?
(A) 0.282

(Q) Provide the documented composite z-score with Calmodulin-1 (Homo sapiens) (UniProt P0DP23) as the system for [N-]=[N+]=Nc1ccccc1[C@@H]1OC(c2ccc(OCCCO)cc2)=N[C@]1(Cc1ccccc1)C(=O)N1CCCCC1
(A) 0.748

(Q) Observed composite z-score on Calmodulin-1 (Homo sapiens) (UniProt P0DP23) for CO[C@H]1O[C@H](CO)[C@@H](OC(=O)Nc2ccccc2)[C@H](OC(=O)c2cc3ccccc3[nH]2)[C@H]1OC(=O)c1cc2ccccc2[nH]1 , please.
(A) 0.47

(Q) Give recorded composite z-score with Calmodulin-1 (Homo sapiens) (UniProt P0DP23) for the following compound: CCCNC(=O)[C@@]1(Sc2ccc(C)cc2)CC(=O)N(C2Cc3ccccc3C2)[C@@H]1c1ccc(CO)cc1I
(A) 0.497

meta.source: PubChem BioAssay
